study system: HRgpA-6H (Porphyromonas gingivalis) (UniProt P28784)
assay summary: ELISA, coated HRgpA-6H
Lab note: compare OD450 nm against 0.7. Equal or greater, write Criterion met. Smaller, write Criterion not met.

// known answers, use as guide
KB001 mouse Fab VH I31W (Fab, V domains shown) VH: EVQLKQSGPGLVAPSQSLSITCTVSGFSLSWYSVHWVRQPPGKGLEWLGMIWGGGSSDYNSALKSRLSISKDNSKSQVFLKMNSLQTDDTAMYYCARNGNFYAMDYWGQGTSVTVSS VL: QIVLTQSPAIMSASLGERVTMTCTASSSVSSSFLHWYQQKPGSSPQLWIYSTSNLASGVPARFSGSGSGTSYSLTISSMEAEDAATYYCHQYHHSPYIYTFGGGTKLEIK | Criterion not met
KB001 mouse Fab VH Y59K (Fab, V domains shown) VH: EVQLKQSGPGLVAPSQSLSITCTVSGFSLSIYSVHWVRQPPGKGLEWLGMIWGGGSSDKNSALKSRLSISKDNSKSQVFLKMNSLQTDDTAMYYCARNGNFYAMDYWGQGTSVTVSS VL: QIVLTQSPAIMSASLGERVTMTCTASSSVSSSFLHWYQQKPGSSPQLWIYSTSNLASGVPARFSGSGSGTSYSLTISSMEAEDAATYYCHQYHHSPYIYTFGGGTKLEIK | Criterion not met
KB001 mouse Fab VH Y59F (Fab, V domains shown) VH: EVQLKQSGPGLVAPSQSLSITCTVSGFSLSIYSVHWVRQPPGKGLEWLGMIWGGGSSDFNSALKSRLSISKDNSKSQVFLKMNSLQTDDTAMYYCARNGNFYAMDYWGQGTSVTVSS VL: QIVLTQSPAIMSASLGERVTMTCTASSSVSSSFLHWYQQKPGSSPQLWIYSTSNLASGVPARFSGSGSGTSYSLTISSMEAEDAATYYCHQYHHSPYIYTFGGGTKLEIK | Criterion not met
KB001 mouse Fab VH S57A (Fab, V domains shown) VH: EVQLKQSGPGLVAPSQSLSITCTVSGFSLSIYSVHWVRQPPGKGLEWLGMIWGGGSADYNSALKSRLSISKDNSKSQVFLKMNSLQTDDTAMYYCARNGNFYAMDYWGQGTSVTVSS VL: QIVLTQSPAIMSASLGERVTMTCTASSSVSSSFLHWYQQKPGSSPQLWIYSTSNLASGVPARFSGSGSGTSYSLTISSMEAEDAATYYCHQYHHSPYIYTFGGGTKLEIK | Criterion met
KB001 mouse Fab VH Y59T (Fab, V domains shown) VH: EVQLKQSGPGLVAPSQSLSITCTVSGFSLSIYSVHWVRQPPGKGLEWLGMIWGGGSSDTNSALKSRLSISKDNSKSQVFLKMNSLQTDDTAMYYCARNGNFYAMDYWGQGTSVTVSS VL: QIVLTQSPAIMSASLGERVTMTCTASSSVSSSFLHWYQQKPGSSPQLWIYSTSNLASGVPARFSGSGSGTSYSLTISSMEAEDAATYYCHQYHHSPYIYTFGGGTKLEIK | Criterion met
KB001 mouse Fab VL N54F (Fab, V domains shown) VH: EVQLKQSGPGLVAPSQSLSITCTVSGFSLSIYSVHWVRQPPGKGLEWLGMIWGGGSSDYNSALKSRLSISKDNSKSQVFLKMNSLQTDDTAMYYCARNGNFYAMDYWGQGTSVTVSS VL: QIVLTQSPAIMSASLGERVTMTCTASSSVSSSFLHWYQQKPGSSPQLWIYSTSFLASGVPARFSGSGSGTSYSLTISSMEAEDAATYYCHQYHHSPYIYTFGGGTKLEIK | Criterion met

# evaluate next
Q) Hi team, for KB001 mouse Fab VL S57E (Fab, V domains shown) VH: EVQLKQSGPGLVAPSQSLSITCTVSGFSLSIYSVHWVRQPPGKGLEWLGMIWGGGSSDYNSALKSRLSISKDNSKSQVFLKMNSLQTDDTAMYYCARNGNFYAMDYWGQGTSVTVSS VL: QIVLTQSPAIMSASLGERVTMTCTASSSVSSSFLHWYQQKPGSSPQLWIYSTSNLAEGVPARFSGSGSGTSYSLTISSMEAEDAATYYCHQYHHSPYIYTFGGGTKLEIK , is the recorded OD450 nm at or above 0.7?
A) Criterion met
